Experiment: qHTS assay to identify small molecule antagonists of the constitutive androstane receptor (CAR) signaling pathway - cell viability counter screen (AID 1224837); note: nearly all actives have a fitted effect of over 45% in size
Conditions: HepG2-CYP2B6-hCAR viability, CellTiter-Fluor, 23 h, co-treated with 50 nM CITCO; series mostly up to 92.4 µM
Protocol: National Center for Advancing Translational Sciences [NCATS] NIH Chemical Genomics Center [NCGC] U.S. Environmental Protection Agency [EPA] National Institutes of Environmental Health Sciences [NIEHS] National Toxicology Program [NTP] […] A double-stable (hCAR and CYP2B6-2.2kb) transfected cell line, derived from human hepatoma (HepG2) cells, was utilized for the duration of the quantitative high-throughput screens. […] The fluorescence intensity in the plates was then measured using a ViewLux plate reader.
Inconclusive results are not listed. Activity calls are given as the source filed them. Calls come from the whole dose curve; as a rule, active = well fitted cell-killing curve with a large enough effect in the repeat runs; inconclusive = weak or mixed curves, or effect the other way; inactive = flat fitted curve, though single readings scatter.
measurement_label: outcome

Would you please look over these solved cases?
| compound | outcome |
| --- | --- |
| Oc1ccc(C(c2ccc(O)cc2)C(Cl)(Cl)Cl)cc1 | inactive |
| CN(C)C | inactive |
| NCCOCCO | inactive |
| CC(=O)O[C@]1(C(C)=O)CC[C@H]2[C@@H]3C=C(C)C4=CC(=O)CC[C@]4(C)[C@H]3CC[C@@]21C | inactive |
| CCCCCC1C(=O)CCC1CC(=O)OC (configuration not stated) | inactive |
| [Na+] | inactive |

Next compound, outcome to be filled in.
What measured outcome goes with Cc1cccc(Nc2ccccc2C(=O)O)c1C ?
inactive
